- TEST SYSTEM: mTOR (Homo sapiens, UniProt P42345)
- Construct: FLAG; made in house
- Sequence (P42345 1362-2549): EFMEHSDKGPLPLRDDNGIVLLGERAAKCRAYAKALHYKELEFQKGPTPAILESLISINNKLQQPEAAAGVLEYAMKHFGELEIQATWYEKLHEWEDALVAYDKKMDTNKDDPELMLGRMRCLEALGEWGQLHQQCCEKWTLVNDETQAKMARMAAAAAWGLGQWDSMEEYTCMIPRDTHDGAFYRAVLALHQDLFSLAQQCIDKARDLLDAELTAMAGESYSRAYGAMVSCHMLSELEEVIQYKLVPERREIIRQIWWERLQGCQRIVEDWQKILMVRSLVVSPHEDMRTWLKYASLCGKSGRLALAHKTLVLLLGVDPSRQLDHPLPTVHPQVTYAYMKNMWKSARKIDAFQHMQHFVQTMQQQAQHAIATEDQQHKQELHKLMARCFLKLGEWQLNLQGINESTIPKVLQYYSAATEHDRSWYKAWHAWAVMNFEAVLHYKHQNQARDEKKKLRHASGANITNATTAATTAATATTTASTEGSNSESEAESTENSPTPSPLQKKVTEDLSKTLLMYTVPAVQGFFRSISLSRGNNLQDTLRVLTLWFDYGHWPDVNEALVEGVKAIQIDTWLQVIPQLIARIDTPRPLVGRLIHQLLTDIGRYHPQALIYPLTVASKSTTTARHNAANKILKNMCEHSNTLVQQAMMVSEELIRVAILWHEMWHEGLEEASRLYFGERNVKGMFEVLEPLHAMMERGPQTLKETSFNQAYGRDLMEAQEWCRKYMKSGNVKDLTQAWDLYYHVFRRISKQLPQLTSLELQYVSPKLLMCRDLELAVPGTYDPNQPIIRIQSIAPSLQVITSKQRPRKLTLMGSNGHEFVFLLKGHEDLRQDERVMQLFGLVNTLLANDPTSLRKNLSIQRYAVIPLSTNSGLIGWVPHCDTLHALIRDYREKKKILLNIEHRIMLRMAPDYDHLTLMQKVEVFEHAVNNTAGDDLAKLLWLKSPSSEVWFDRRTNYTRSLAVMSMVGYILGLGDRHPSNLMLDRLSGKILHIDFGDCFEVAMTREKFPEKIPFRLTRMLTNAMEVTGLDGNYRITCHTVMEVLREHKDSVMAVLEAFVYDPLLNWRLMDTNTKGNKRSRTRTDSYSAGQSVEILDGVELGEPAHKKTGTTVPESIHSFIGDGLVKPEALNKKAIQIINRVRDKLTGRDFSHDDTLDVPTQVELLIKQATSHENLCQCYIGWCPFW
- PROTOCOL DETAILS: In Vitro mTOR Kinase Assay (Echo), Test (a)(ii)
- Format: biochemical
- CONDITION PARAMETERS: table of enzyme assay Test (a)(ii); read-out: Test (a)(ii) IC50
PROPERTY MEASURED: IC50 (nM)

Some compounds with known IC50 results, for comparison:
CCNC(=O)Nc1ccc(-c2nc(N3CCOC[C@@H]3C)cc(C3(S(=O)(=O)c4cc(F)cc(F)c4)CC3)n2)cc1 [Example 19e] : 1.35
C[C@H]1COCCN1c1cc(C2(S(=O)(=O)CCCO)CC2)nc(-c2ccc(NC(=O)Nc3nccs3)cc2)n1 [Example 36cj] : 3.33
C[C@H]1COCCN1c1cc(C2(S(=O)(=O)CCC(C)(C)O)CC2)nc(-c2ccc(NC(=O)NCCF)cc2)n1 [Example 79d] : 16.1
C[C@H]1COCCN1c1cc(C2(S(=O)(=O)CCCO)CC2)nc(-c2ccc(NC(=O)NCCO)cc2)n1 [Example 31f] : 1.6
CCS(=O)(=O)C1(c2cc(N3CCOC[C@@H]3C)nc(-c3ccc(NC(=S)NCCO)cc3)n2)CC1 [Example 88d] : 4

P. CCNC(=O)Nc1ccc(-c2nc(N3CCOC[C@@H]3C)cc(C3(S(=O)(=O)c4ccccc4)CCOCC3)n2)cc1 [Example 36cz]
Q. C[C@H]1COCCN1c1cc(C2(S(=O)(=O)c3nccs3)CC2)nc(-c2ccc(NC(=O)NCCO)cc2)n1 [Example 66]
Q: Which record would sort first by descending IC50, P or Q ? Please indicate the selected item by its label.
Ans: P
(P: 38.4 nM, Q: 3.03 nM)

###

- TEST SYSTEM: mTOR (Homo sapiens)
- Construct: FLAG; made in house
- PROTOCOL DETAILS: In Vitro mTOR Kinase Assay (Echo), Test (a)(ii)
- Format: biochemical
- CONDITION PARAMETERS: table of enzyme assay Test (a)(ii); read-out: Test (a)(ii) IC50
PROPERTY MEASURED: IC50 (nM)

Some compounds with known IC50 results, for comparison:
O=C(NCCCO)Nc1ccc(-c2nc(N3CCOCC3)cc(C3(S(=O)(=O)C4CC4)CCCC3)n2)cc1 [Example 13o] : 28.7
CCNC(=O)Nc1ccc(-c2nc(N3CCOC[C@@H]3C)cc(C3(S(=O)(=O)C4CCOCC4)CC3)n2)cc1 [Example 94b] : 12.2
C[C@H]1COCCN1c1cc(C2(S(C)(=O)=O)CC2)nc(-c2ccc(NC(=O)NC3CCC3)cc2)n1 : 1.86
C[C@H]1COCCN1c1cc(C2(S(C)(=O)=O)CCC2)nc(-c2ccc(NC(=S)NCCO)cc2)n1 : 2.05
C[C@H]1COCCN1c1cc(C2(S(=O)(=O)CCCO)CCCC2)nc(-c2ccc(NC(=O)NCCCO)cc2)n1 [Example 43i] : 102
Cc1noc(C)c1S(=O)(=O)C1(c2cc(N3CCOC[C@@H]3C)nc(-c3ccc(NC(=O)NCC4(O)CC4)cc3)n2)CC1 [Example 59e] : 293

a. C[C@H]1COCCN1c1cc(C2(S(C)(=O)=O)CC2)nc(-c2ccc(NC(=O)Nc3ccc(Cl)cc3)cc2)n1
b. C[C@H]1COCCN1c1cc(C2(S(=O)(=O)CCCO)CC2)nc(-c2ccc(NC(=S)NCC(F)F)cc2)n1 [Example 99j]
c. Cc1ccc(F)cc1S(=O)(=O)C1(c2cc(N3CCOC[C@@H]3C)nc(-c3ccc(NC(=O)NCC(F)F)cc3)n2)CC1 [Example 61d]
Q: # desc sort on IC50 across 3 compounds The reply should contain the labels ordered as requested.
Ans: c, b, a

Every entry's value here was drawn from patent US20090018134A1.
